- System: Wolbachia pipientis
- protocolDetails: Anti-Wolbachia Cell-Based Screen
- Type: functional
- Set-up: scale not given: in the data most compounds retested in dose-response had high values
- conditionDescription: 5 µM
Out of some 48,000 compounds screened, about 13,000 (27%) showed an effect of 50% or more. Some of the results follow.
propertyLabel: Percent Effect (%)
Answers are plain numbers, in %.

Kindly state the measured Percent Effect obtained for CCc1nc(CN2CCN(C(=O)c3csc(C(C)C)n3)CC2)no1 with Wolbachia pipientis. -9.148

Query NC1(C(=O)NCC2CCCN(Cc3cccc4nonc34)C2)CCC1 (stereo not drawn) next -1.452

Query COCCN1CCN(Cc2noc(C3CC3)n2)CC1C (stereo not drawn) next -13.95

Query CCC(NC(=O)Nc1ccc(OC)c(C)c1)c1noc(C)n1 (stereo not drawn) next -4.029

Query CN(C)CC1CN(c2ncnc3[nH]ccc23)CCO1 (stereo not drawn) next 4.502

Query CCN1CCN(C(=O)c2nc(C)n(-c3ccccc3Cl)n2)CC1 next 7.919

Query CC(C)c1ncc2c(n1)CN(CC1CCCCO1)CC2 (stereo not drawn) next -13.54

More entries:
Kindly state the measured Percent Effect obtained for Cc1nn(-c2cc(Cl)cc(Cl)c2)c(C)c1CCC(=O)O with Wolbachia pipientis. 123.3
